- measured.on: T1, full length human GLP-1R with N-terminal FLAG tag and C-terminal GFP tag, on CHO cells (human, UniProt P43220 24-463)
- T1 construct: whole, on cells; the cell line itself is tied to UniProt P43220; also called FLAG-GLP-1R-GFP; CHO-GLP-1R
- assay.comment: flow cytometry, expressing vs parent CHO cells
parameter.measured: MFI Ratio

[[record]]
binder = "GLP1R-222-012 (antibody, V domains shown, IgG) VH: QVQLVESGGGVVQPGRSLRLSCAASGFTFNNYGMHWVRQAPGKGLEWVAVISDEGSNKYYADSVKGRFTISRDNSKNTLYLQMNSLRAEDTAVYYCAKHMSMQEGAVTGVGQAAKEFIAWLVKGRVRADLVGDAFDVWGQGTLVTVSS VL: QSVLTQPPSVSAAPGQKVTISCSGSSSNIGNNDVSWYQQLPGTAPKLLIYDDDKRPSGIPDRFSGSKSGTSATLGITGLQTGDEADYYCGTWDTSLSVGEFGGGTKLTVL"
parameter_measured = "MFI Ratio"
measurement = 775

[[record]]
binder = "GLP1R-222-052 (antibody, V domains shown, IgG) VH: QVQLVESGGGVVQPGRSLRLSCAASGFTFNNYPMHWVRQAPGKGLEWVAVISYDESNKYYADSVKGRFTISRDNSKNTLYLQMNSLRAEDTAVYYCAKHMSMQEGAVTGGGQAAKEFIAWLVKGRVRADLVGDAFDVWGQGTLVTVSS VL: QSVLTQPPSVSAAPGQKVTISCSGSSSNIGKRSVSWYQQLPGTAPKLLIYDNNKRASGIPDRFSGSKSGTSATLGITGLQTGDEADYYCVTWDRSLSAGVFGGGTKLTVL"
parameter_measured = "MFI Ratio"
measurement = 13.7

[[record]]
binder = "GLP1R-222-056 (antibody, V domains shown, IgG) VH: QVQLVESGGGVVQPGRSLRLSCAASGFPFSSYAMHWVRQAPGKGLEWVAVISYDRSNKYYADSVKGRFTISRDNSKNTLYLQMNSLRAEDTAVYYCAKHMSMQEGAVTGYGQAAKEFIAWLVKGFVRADLVGDAFDVWGQGTLVTVSS VL: QSVLTQPPSVSAAPGQKVTISCSGSSSNIGSNYISWYQQLPGTAPKLLIYDNDKRPAGIPDRFSGSKSGTSATLGITGLQTGDEADYYCGTWDTSLSVGEFGGGTKLTVL"
parameter_measured = "MFI Ratio"
measurement = 946


Input line: Form field: reported MFI Ratio of GLP1R-222-073 (antibody, V domains shown, IgG) VH: QVQLVESGGGVVQPGRSLRLSCAASGFTFRDYGMHWVRQAPGKGLEWVAFIRYDEINKYYADSVKGRFTISRDNSKNTLYLQMNSLRAEDTAVYYCAKHMSMQEGAVTGEGQAAKEFIAWLVGGRVRADLVGDAFDVWGQGTLVTVSS VL: QSVLTQPPSVSAAPGQKVTISCSGSGSNIGNNDVSWYQQLPGTAPKLLIYDNNKRASGIPDRFSGSKSGTSATLGITGLQTGDEADYYCGTWDRGPNTGVFGGGTKLTVL
Output line: 984

Input line: Form field: reported MFI Ratio of GLP1R-222-023 (antibody, V domains shown, IgG) VH: QVQLVESGGGVVQPGRSLRLSCAASGFSFSDYGMHWVRQAPGKGLEWVAFISYDANNKYYADSVKGRFTISRDNSKNTLYLQMNSLRAEDTAVYYCAKHMSMQEGAVTGEWQAAKEFIAWLVKGRVRADLVGDAFDVWGQGTLVTVSS VL: QSVLTQPPSVSAAPGQKVTISCSGSSSNIGNNDVSWYQQLPGTAPKLLIYENTKRPSGIPDRFSGSKSGTSATLGITGLQTGDEADYYCGTWDAGLSTGVFGGGTKLTVL
Output line: 778
